Test system: Mus musculus
TEST DETAILS: Antiinflammatory activity in A/J mouse assessed as inhibition of leukocyte accumulation in bronchoalveolar space at 100 umol/kg, po administered 1 hr prior to LPS-challenge measured after 18 hrs relative to vehicle-treated control
Assay type: functional
APPLIED CONDITIONS: Lung
EXPERIMENTAL ENDPOINT: inhibition in vivo at 100 µmol/kg (%)
// units = %; emit number, no label

Sample records with inhibition in vivo at 100 µmol/kg:
COc1cccc(C(=O)N(C)/N=C/c2ccc(OC)c(OC)c2)c1; 73
COc1ccc(/C=N/N(C)c2ncnc3ccccc23)cc1OC; 47

[ask] Report inhibition in vivo at 100 µmol/kg for COc1ccc(C(=O)N(C)/N=C/c2ccc(OC)c(OC)c2)cc1 please.
[reply] 81

====

// reported inhibition for each item listed
TARGET OR SYSTEM: cGMP-dependent 3',5'-cyclic phosphodiesterase (Homo sapiens)
Sequence (O00408 whole entry): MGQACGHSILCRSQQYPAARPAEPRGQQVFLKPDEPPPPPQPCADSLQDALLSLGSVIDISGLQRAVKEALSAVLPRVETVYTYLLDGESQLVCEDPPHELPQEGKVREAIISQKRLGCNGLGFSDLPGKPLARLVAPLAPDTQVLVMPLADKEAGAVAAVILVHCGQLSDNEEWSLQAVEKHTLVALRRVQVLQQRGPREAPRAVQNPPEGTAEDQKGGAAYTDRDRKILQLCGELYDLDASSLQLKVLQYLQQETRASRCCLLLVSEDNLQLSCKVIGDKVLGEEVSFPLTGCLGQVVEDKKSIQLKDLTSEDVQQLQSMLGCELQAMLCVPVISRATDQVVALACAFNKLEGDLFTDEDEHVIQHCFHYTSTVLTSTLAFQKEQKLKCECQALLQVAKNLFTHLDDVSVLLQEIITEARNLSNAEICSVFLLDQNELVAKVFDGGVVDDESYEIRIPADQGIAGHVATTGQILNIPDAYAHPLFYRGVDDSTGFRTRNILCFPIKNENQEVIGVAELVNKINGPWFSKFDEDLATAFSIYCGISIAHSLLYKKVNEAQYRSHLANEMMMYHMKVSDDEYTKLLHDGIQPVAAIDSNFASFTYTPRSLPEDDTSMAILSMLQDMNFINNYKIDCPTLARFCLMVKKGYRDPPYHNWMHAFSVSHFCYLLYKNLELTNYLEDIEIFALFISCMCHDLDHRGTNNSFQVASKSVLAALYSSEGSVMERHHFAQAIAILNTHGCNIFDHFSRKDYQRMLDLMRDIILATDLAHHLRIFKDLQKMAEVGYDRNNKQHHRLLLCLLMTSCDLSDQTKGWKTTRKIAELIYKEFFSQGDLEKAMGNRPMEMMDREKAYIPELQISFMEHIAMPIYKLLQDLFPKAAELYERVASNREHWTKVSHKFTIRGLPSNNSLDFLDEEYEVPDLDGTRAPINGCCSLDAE
TEST DETAILS: Inhibition of human PDE2 using [3H]cAMP as substrate at 10 uM
// units = %; emit number, no label

Sample records with inhibition:
COc1ccc(/C=N/N(C)C(=O)c2ccc(OC)c(OC)c2)cc1OC; 40.8
COc1ccc(C(=O)N(C)/N=C/c2ccc(OC)c(OC)c2)cc1; 35.5
COc1ccc(/C=N/N(C)C(=O)c2ccccc2)cc1OC; 23.5
COc1ccc(/C=N/N(C)C(=O)c2ccc3c(c2)OCO3)cc1OC; 4
COc1ccc(/C=N/N(C)C(=O)c2ccc(Cl)cc2)cc1OC; 26.6

[ask] Report inhibition for COc1cccc(C(=O)N(C)/N=C/c2ccc(OC)c(OC)c2)c1 please.
[reply] 40.4

[ask] And then COc1ccc(/C=N/N(C)C(=O)c2ccc(O)cc2)cc1OC , what is it?
[reply] 39.3

====

Species on record: Bos taurus
TEST DETAILS: Inhibition of bovine PDE5 using […] as substrate at 10 uM
EXPERIMENTAL ENDPOINT: inhibition (%)
// units = %; emit number, no label

[ask] Report inhibition for COc1cccc(C(=O)N(C)/N=C/c2ccc(OC)c(OC)c2)c1 please.
[reply] 29.1

[ask] And then COc1ccc(/C=N/N(C)C(=O)c2ccc(Cl)cc2)cc1OC , what is it?
[reply] 27.5

[ask] And then COc1ccc(/C=N/N(C)C(=O)c2ccc3c(c2)OCO3)cc1OC , what is it?
[reply] 5.1

[ask] And then COc1ccc(/C=N/N(C)C(=O)c2ccccc2)cc1OC , what is it?
[reply] 22.3

[ask] And then COc1ccc(/C=N/N(C)C(=O)c2ccc(OC)c(OC)c2)cc1OC , what is it?
[reply] 30.9

[ask] And then COc1ccc(/C=N/N(C)C(=O)c2ccccc2OC)cc1OC , what is it?
[reply] 13.9

[ask] And then COc1ccc(/C=N/N(C)C(=O)c2ccc(O)cc2)cc1OC , what is it?
[reply] 27.9

====

TEST DETAILS: Inhibition of bovine PDE5 using […] as substrate
Parameters: species or system Bos taurus
EXPERIMENTAL ENDPOINT: pIC50
// returns pIC50 (minus log10 of molar concentration), number only

[ask] Report pIC50 for COc1ccc(C(=O)N(C)/N=C/c2ccc(OC)c(OC)c2)cc1 please.
[reply] 6.82
